Test Description: Clearance in Sprague-Dawley rat at 2 mg/kg, iv by LC/MS/MS analysis
Type: ADME, organism-based
Design: dose 2 mg/kg, route intravenous
Experimental Parameters: in vivo
Endpoint Name: clearance (mL/min/kg)
Give the value, in units of mL/min/kg, as a plain number.

Query: For CCCC1=C(C(=O)OCC)[C@H](c2ccnc3ccccc23)C(C#N)=C(C)N1 , what is its reported clearance?
Result: 9.7

---

IC50 values by entry
Target: Voltage-gated L-type calcium channel (Rattus norvegicus, UniProt P22002+Q02485+P27732)
Test Description: Inhibition of L-type calcium channel in rat A10 cells assessed as inhibition of depolarization-induced increase in calcium flux after 10 mins by FLIPR assay
Numbers only here, please. The scale is µM.

Some entries whose results are on file:
Query: Item COC(=O)C1=C(CCl)NC(C)=C(C#N)[C@H]1c1ccnc2ccccc12 with Voltage-gated L-type calcium channel (Rattus norvegicus, UniProt P22002+Q02485+P27732) - IC50?
Result: 7.93

Query: Give IC50 (Voltage-gated L-type calcium channel (Rattus norvegicus, UniProt P22002+Q02485+P27732)) of the following compound: COC(=O)C1=C(CCl)NC(C)=C(C#N)[C@H]1c1ccc(F)cc1Cl
Result: 2.07

Query: Item COC(=O)C1=C(C)NC(C)=C(C#N)[C@@H]1c1ccnc2ccccc12 with Voltage-gated L-type calcium channel (Rattus norvegicus, UniProt P22002+Q02485+P27732) - IC50?
Result: 14.57

Query: Request: IC50, test system Voltage-gated L-type calcium channel (Rattus norvegicus, UniProt P22002+Q02485+P27732), entry COC(=O)C1=C(C)NC(C)=C(C(=O)OC(C)(C)C)[C@@H]1c1cccc([N+](=O)[O-])c1
Result: 0.607

Query: Please state recorded IC50 (tested on Voltage-gated L-type calcium channel (Rattus norvegicus, UniProt P22002+Q02485+P27732)) of COC(=O)C1=C(CCl)NC(C)=C(C#N)[C@@H]1c1ccnc2ccccc12
Result: 11.27

Others:
Query: What measured IC50 is associated with CCCC1=C(C(=O)OCC)[C@H](c2ccnc3ccccc23)C(C#N)=C(C)N1 on Voltage-gated L-type calcium channel (Rattus norvegicus, UniProt P22002+Q02485+P27732)?
Result: 2.2

Query: API: value(readout=IC50, system=Voltage-gated L-type calcium channel (Rattus norvegicus, UniProt P22002+Q02485+P27732)) for record CCCC1=C(C(=O)OCC)C(c2ccnc3ccccc23)C(C#N)=C(C)N1 (racemic)
Result: 1.1

Query: Request: IC50, test system Voltage-gated L-type calcium channel (Rattus norvegicus, UniProt P22002+Q02485+P27732), entry CC1=C(C#N)[C@H](c2ccc(F)cc2Cl)C(C(=O)OC(C)(C)C)=C(C)N1
Result: 3.84

---

Measured log10 of IC50 accompanies every entry in the list below.
Target: Mineralocorticoid receptor (Homo sapiens, UniProt P08235)
Sequence (P08235 whole entry): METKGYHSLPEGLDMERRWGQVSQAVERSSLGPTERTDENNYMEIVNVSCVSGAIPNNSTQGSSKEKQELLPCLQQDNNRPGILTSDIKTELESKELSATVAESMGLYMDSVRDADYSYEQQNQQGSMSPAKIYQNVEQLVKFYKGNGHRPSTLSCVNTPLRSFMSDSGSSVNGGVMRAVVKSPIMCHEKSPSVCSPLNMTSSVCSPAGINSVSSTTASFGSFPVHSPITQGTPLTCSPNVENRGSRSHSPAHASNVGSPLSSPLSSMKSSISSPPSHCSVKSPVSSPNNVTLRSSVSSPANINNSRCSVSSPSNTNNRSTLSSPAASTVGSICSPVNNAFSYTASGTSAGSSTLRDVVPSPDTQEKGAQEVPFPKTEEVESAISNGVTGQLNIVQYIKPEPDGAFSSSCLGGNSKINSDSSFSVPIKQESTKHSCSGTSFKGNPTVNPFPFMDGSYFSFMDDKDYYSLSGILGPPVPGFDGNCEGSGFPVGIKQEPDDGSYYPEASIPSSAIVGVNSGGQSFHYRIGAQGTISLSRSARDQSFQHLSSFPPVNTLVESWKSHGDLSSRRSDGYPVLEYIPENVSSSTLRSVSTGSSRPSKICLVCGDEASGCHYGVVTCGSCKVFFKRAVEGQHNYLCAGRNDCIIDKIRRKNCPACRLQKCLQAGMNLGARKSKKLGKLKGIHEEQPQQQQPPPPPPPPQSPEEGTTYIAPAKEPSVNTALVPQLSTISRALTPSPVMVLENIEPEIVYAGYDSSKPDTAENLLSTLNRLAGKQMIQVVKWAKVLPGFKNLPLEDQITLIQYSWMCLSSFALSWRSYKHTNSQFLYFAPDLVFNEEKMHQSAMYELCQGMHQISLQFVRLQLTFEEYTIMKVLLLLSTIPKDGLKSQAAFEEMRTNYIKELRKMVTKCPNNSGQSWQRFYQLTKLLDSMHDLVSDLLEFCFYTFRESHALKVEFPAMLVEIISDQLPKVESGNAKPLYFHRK
For clarity, the numbers are log10 values of IC50 expressed in µM.

Query: Please give the measured log10 of IC50 for this compound: CCCC1=C(C(=O)OCC)[C@H](c2ccnc3ccccc23)C(C#N)=C(C)N1
Result: -2.00

Query: Using the record for CC1=C(C#N)[C@H](c2ccc(F)cc2Cl)C(C(=O)OC(C)(C)C)=C(C)N1 , report its log10 of IC50.
Result: 0.55

Query: Recorded log10 of IC50 of CC1=C(C#N)[C@@H](c2ccc(F)cc2Cl)C(C(=O)OC(C)(C)C)=C(C)N1 , please.
Result: -2.43

Query: Reported log10 of IC50, compound COC(=O)C1=C(C)NC(C)=C(C(=O)OC(C)(C)C)[C@H]1c1cccc([N+](=O)[O-])c1 : ____
Result: -0.27

Query: Which value of log10 of IC50 has been reported for CCCC1=C(C(=O)OCC)[C@@H](c2ccnc3ccccc23)C(C#N)=C(C)N1 in the records?
Result: 0.52

---
Query: Field request: log10 of IC50 | item: COC(=O)C1=C(C)NC(C)=C(C(=O)OC(C)(C)C)C1c1cccc([N+](=O)[O-])c1 (racemic)
Result: -0.90

Query: For the compound shown here, COC(=O)C1=C(CCl)NC(C)=C(C#N)[C@@H]1c1ccc(F)cc1Cl , give the reported log10 of IC50.
Result: 0.34

---

Test Description: Half life in Sprague-Dawley rat at 2 mg/kg, iv by LC/MS/MS analysis
Assay type: ADME, organism-based
Parameters: dose 2 mg/kg, route intravenous
Experimental Parameters: Sprague-Dawley, in vivo
Endpoint Name: half-life
Give your result as the value with the unit written after it.

Query: What half-life value was documented for this molecule, CCCC1=C(C(=O)OCC)[C@H](c2ccnc3ccccc23)C(C#N)=C(C)N1 ?
Result: 6.54 h

---

Target: Progesterone receptor (Homo sapiens)
Sequence (P06401 whole entry): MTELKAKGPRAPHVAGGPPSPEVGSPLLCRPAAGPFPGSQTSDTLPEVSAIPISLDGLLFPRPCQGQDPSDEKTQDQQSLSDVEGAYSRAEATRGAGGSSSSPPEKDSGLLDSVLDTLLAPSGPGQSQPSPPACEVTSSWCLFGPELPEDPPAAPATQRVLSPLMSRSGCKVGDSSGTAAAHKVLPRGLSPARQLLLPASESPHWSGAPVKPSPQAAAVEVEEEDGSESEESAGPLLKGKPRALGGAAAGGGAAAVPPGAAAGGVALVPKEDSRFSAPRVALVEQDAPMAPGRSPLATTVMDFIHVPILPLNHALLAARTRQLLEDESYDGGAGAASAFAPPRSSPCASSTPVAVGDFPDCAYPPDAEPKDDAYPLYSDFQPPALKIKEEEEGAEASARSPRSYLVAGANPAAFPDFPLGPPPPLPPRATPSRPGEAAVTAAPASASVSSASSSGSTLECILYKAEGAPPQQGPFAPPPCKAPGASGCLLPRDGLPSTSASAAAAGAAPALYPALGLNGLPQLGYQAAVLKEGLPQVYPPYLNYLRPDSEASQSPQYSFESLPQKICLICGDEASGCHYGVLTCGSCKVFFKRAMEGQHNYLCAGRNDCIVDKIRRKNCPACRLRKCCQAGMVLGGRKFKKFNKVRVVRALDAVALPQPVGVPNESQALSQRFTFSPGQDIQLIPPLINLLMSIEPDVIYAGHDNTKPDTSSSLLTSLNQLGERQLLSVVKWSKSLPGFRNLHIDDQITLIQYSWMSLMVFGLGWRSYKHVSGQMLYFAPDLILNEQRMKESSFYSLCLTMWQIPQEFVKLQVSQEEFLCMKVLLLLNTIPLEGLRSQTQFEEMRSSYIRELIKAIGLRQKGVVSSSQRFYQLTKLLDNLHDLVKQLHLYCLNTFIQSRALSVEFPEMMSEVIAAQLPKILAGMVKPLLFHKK
Test Description: Inhibition of progesterone receptor
Endpoint Name: pIC50
Worth noting: pIC50 values are minus log10 of concentrations stated in mol/L.

Query: What measured pIC50 is associated with CCCC1=C(C(=O)OCC)[C@H](c2ccnc3ccccc23)C(C#N)=C(C)N1 on Progesterone receptor (Homo sapiens)?
Result: 5.87

Now for a further molecule.
Query: Test system Progesterone receptor (Homo sapiens); read-out pIC50; what value for COC(=O)C1=C(C)NC(C)=C(C(=O)OC(C)(C)C)[C@@H]1c1cccc([N+](=O)[O-])c1 ?
Result: 6.11

---

Target: Estrogen receptor (Homo sapiens, UniProt P03372)
Sequence (P03372 whole entry): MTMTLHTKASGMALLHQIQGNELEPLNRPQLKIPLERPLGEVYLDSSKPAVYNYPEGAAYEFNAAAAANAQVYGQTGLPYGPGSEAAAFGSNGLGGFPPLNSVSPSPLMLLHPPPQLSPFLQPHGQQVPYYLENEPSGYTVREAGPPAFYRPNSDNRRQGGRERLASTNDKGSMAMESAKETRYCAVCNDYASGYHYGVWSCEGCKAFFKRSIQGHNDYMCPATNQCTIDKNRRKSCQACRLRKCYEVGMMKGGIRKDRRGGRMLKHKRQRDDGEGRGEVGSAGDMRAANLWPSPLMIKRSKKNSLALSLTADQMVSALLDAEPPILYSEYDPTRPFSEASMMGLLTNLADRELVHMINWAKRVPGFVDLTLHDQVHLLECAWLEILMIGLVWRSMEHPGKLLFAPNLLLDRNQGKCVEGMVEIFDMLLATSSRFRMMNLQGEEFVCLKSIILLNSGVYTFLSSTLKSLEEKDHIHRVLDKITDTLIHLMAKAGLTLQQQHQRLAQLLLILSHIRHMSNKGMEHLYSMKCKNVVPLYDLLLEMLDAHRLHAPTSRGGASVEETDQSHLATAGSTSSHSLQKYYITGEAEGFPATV
Test Description: Inhibition of estrogen receptor
pIC50: −log10 of the molar value.
Endpoint Name: pIC50

Query: What measured pIC50 goes with CCCC1=C(C(=O)OCC)[C@H](c2ccnc3ccccc23)C(C#N)=C(C)N1 ?
Result: < 5.00
